System: hematologic cancer cell lines
test_protocol: Screening on hematologic cancer cell lines (summary)
Format: cell-based
applied_conditions: Homo sapiens, read-out: IC50 across hematologic cancer cell lines (Tables 5 and 6); span over the cell line panel, 72 h, MTT assay
readout_kind: IC50

query: Notebook entry, hematologic cancer cell lines assay: IC50 of CCc1c2c(nc3ccc(OC(=O)N4CCC(N5CCCCC5)CC4)cc13)-c1cc3c(c(=O)n1C2)COC(=O)[C@]3(O)CC [Irinotecan] = ?
result: > 10 µM

query: Notebook entry, hematologic cancer cell lines assay: IC50 of CC[C@@]1(O)C(=O)OCc2c1cc1n(c2=O)Cc2c-1nc1ccc(O)cc1c2C=NOCCCCCC(=O)NO [Compound 3d] = ?
result: 0.006 to 4 µM
